# testedOn: UniProtKB Q06124
# assayComment: SHP2 allosteric inhibition assay (DiFMUP prompt fluorescence)
# Format: biochemical
reportedEndpoint: IC50 (nM)

CC1(N)CCN(c2cnc(Sc3cccc(Cl)c3Cl)c(N)n2)CC1 : 29

====

# testedOn: SHP2 (Homo sapiens (Human))
# Sequence (Q06124 whole entry): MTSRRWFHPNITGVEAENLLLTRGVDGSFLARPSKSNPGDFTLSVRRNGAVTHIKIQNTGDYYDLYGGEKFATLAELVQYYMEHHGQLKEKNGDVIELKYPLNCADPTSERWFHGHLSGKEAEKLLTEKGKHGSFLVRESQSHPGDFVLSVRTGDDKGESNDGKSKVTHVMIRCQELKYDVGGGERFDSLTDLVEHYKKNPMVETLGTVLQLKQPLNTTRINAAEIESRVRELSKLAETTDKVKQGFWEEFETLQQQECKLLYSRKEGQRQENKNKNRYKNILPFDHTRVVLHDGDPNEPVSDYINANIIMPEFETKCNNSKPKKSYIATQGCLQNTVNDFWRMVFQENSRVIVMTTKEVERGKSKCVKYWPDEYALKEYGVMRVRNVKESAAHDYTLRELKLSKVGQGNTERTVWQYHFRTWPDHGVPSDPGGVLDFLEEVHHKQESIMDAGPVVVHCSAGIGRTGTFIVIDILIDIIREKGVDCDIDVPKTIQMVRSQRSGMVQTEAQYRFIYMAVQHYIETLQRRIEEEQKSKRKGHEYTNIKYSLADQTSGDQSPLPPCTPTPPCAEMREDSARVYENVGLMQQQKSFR
# assayComment: SHP2 allosteric inhibition assay (DiFMUP prompt fluorescence)
# Format: biochemical
# conditionParameters: 0.5 nM SHP2 activated with 0.5 μM peptide IRS1_pY1172(dPEG8)pY1222; substrate DiFMUP; 25° C.; read-out: IC50
pIC50: −log10 of the molar value.
reportedEndpoint: pIC50

NCC1(F)CCN(c2cnc(Sc3cccc(N)c3Cl)c(N)n2)CC1 [Example 44] : 6.57
Nc1nc(N2CCC(N)(CO)CC2)cnc1Sc1ccnc(Cl)c1Cl [Example 52] : 7.21
CC1(N)CCN(c2cnc(Sc3ccc(-c4nn[nH]n4)cc3Cl)c(N)n2)CC1 [Example 38] : 7.64
CC1(CN)CCN(c2cnc(Sc3ccnc(N)c3Cl)c(N)n2)CC1 [Example 42] : 7.64
CC1(CN)CCN(c2cnc(Sc3cccnc3C(F)(F)F)c(N)c2)CC1 [Example 45] : 6.45
COc1cccc(Sc2ncc(N3CCC(C)(N)CC3)nc2N)c1Cl [Example 10] : 7.25
Nc1nc(N2CCC(N)(CO)CC2)cnc1Sc1cccnc1C(F)(F)F [Example 54] : 6.77
NCC1(c2cscn2)CCN(c2cnc(Sc3cccnc3C(F)(F)F)c(N)n2)CC1 [Example 40] : 7.10
CC1(N)CCN(c2cnc(Oc3cccc(Cl)c3Cl)c(N)n2)CC1 [Example 8] : 4.19
